Property: IC80 (µg/ml) with constrains; scope: individual binders
system-under-test: HIV Env, isolate WEAU_d15_410_5017 (HIV)
test-summary: cell-based or functional assay
Report the figure in µg/mL without appending any unit label.

Use the examples below as a reference point.
ePGDM9 (antibody, V domains shown) VH: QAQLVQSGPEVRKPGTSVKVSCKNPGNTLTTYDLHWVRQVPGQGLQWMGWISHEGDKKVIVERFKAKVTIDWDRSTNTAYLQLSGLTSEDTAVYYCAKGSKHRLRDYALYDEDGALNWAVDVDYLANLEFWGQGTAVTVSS VL: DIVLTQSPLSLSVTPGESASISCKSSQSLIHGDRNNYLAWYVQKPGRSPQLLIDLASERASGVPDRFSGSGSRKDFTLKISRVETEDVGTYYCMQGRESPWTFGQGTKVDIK :: 0.009
ePGDM5 (antibody, V domains shown) VH: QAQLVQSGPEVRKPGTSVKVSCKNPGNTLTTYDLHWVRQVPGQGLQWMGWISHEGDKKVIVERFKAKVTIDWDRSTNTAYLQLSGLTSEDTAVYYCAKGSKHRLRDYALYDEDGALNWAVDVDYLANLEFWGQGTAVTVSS VL: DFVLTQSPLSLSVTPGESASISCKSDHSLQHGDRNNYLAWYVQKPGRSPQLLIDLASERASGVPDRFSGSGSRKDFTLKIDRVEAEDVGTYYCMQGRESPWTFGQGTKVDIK :: 0.003
PGDM1400 (antibody, V domains shown) VH: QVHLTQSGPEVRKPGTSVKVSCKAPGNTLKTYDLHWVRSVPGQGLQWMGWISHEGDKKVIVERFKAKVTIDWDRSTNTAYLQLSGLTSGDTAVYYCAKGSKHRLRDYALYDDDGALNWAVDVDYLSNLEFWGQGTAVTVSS VL: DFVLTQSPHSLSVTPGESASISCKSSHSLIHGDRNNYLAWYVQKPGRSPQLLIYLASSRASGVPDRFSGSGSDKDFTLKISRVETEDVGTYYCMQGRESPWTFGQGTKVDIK :: 0.3

Please look at the following binder next.
# IC80 (µg/ml) with constrains lookup, item ePGDM13 (antibody, V domains shown) VH: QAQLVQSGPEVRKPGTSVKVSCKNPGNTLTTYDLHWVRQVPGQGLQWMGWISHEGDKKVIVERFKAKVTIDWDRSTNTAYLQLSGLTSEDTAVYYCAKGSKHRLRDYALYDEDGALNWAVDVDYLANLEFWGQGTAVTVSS VL: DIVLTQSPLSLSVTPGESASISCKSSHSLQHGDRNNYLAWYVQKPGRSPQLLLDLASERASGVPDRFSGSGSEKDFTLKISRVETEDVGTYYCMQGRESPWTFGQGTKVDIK
0.012
